Target: PTB1B (Homo sapiens)
Sequence (P18031 1-435): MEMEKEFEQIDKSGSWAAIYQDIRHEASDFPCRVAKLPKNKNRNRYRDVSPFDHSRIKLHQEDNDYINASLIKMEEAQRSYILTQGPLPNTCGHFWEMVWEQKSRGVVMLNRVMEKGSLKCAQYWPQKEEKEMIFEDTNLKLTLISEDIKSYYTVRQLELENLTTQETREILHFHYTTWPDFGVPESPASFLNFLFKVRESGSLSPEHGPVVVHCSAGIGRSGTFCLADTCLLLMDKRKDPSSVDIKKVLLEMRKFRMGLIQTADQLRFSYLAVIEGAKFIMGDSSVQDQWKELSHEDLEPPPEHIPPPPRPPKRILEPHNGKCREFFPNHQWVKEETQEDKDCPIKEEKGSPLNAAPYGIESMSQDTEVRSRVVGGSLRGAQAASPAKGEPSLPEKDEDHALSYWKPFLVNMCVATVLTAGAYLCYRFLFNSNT
Assay type: biochemical
Conditions: read-out: IC50 Values in μM Against Various Enzymes: PTB1B
Give IC50 for every item shown.
Please reply with the bare figure in µM and do not write the unit itself.

Name the recorded IC50 for CC(C)C[C@H](NC(=O)[C@H](Cc1ccc(OCC(=O)O)c(OCC(=O)O)c1)NC(=O)[C@H](CCC(=O)OCc1ccccc1)NC(=O)OCC1c2ccccc2-c2ccccc21)C(N)=O . 19.4

Name the recorded IC50 for CC(C)C[C@H](NC(=O)[C@H](Cc1ccc(OCC(=O)O)cc1)NC(=O)[C@H](CCC(=O)OCc1ccccc1)NC(=O)OCc1ccccc1)C(N)=O . 72

Name the recorded IC50 for CC(C)C[C@H](NC(=O)[C@H](Cc1ccc(OCC(=O)O)cc1)NC(=O)[C@H](CCC(=O)OCc1ccccc1)NC(=O)OCC1c2ccccc2-c2ccccc21)C(N)=O . 4.6
